- TESTED_SYSTEM: human α1B adrenoceptor (Homo sapiens, UniProt P35368)
- Construct: expressed in transfected cells
- Sequence (P35368 1-520): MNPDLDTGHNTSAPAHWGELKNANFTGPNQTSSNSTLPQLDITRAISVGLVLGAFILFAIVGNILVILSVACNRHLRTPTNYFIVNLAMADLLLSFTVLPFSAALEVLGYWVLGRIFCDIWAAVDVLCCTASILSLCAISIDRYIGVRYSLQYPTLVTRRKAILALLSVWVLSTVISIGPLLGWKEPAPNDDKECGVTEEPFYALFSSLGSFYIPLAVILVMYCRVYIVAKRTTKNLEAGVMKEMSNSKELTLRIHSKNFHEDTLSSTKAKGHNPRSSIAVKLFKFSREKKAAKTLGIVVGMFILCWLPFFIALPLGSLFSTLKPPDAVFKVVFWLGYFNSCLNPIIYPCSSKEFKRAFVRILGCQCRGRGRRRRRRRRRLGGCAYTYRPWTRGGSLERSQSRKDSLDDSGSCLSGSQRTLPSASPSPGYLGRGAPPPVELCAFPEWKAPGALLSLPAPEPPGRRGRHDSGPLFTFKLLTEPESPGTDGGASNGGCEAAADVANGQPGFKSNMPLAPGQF
- ASSAY_NOTES: Radioligand binding, α1B adrenergic receptor
- DETAILS: Table 9; read-out: hα1B Ki
pKi: −log10 of the molar value.

>  <SMILES_STRUCTURE>
O=C1C(=Nc2ccc(Br)cc2)c2ccccc2N1c1ccccc1

>  <TESTED_SYSTEM>
human α1B adrenoceptor (Homo sapiens, UniProt P35368)

>  <pKi>
4.50

$$$$
>  <SMILES_STRUCTURE>
Cc1ccc(Nc2cc(N(C)C)nc(N(C)CCc3c[nH]c4ccccc34)n2)cc1

>  <TESTED_SYSTEM>
human α1B adrenoceptor (Homo sapiens, UniProt P35368)

>  <pKi>
6.34

$$$$
>  <SMILES_STRUCTURE>
O=C1C(=Nc2cccc(Cl)c2)c2ccccc2N1c1ccccc1

>  <TESTED_SYSTEM>
human α1B adrenoceptor (Homo sapiens, UniProt P35368)

>  <pKi>
4.51

$$$$
>  <SMILES_STRUCTURE>
Cc1ccc(Nc2cc(N3CCCCC3)nc(N(C)CCc3ccccc3)n2)cc1

>  <TESTED_SYSTEM>
human α1B adrenoceptor (Homo sapiens, UniProt P35368)

>  <pKi>
5.80

$$$$
>  <SMILES_STRUCTURE>
Cc1ccc(Nc2cc(N3CCCCC3)nc(N(C)CCc3c[nH]c4ccccc34)n2)cc1

>  <TESTED_SYSTEM>
human α1B adrenoceptor (Homo sapiens, UniProt P35368)

>  <pKi>
5.84

$$$$
>  <SMILES_STRUCTURE>
Cc1ccc(Nc2cc(N3CCCCC3)nc(N3CCN(c4ncccc4C(F)(F)F)CC3)n2)cc1

>  <TESTED_SYSTEM>
human α1B adrenoceptor (Homo sapiens, UniProt P35368)

>  <pKi>
4.82

$$$$
>  <SMILES_STRUCTURE>
CN(CCc1c[nH]c2ccccc12)c1nc(Nc2ccc(F)c(F)c2)cc(N2CCCCC2)n1

>  <TESTED_SYSTEM>
human α1B adrenoceptor (Homo sapiens, UniProt P35368)

>  <pKi>
6.07

$$$$
>  <SMILES_STRUCTURE>
CN(C)c1cc(Nc2ccc(Cl)c(Cl)c2)nc(Nc2ccccc2)n1

>  <TESTED_SYSTEM>
human α1B adrenoceptor (Homo sapiens, UniProt P35368)

>  <pKi>
4.39

$$$$
>  <SMILES_STRUCTURE>
O=C1C(=Nc2ccc(Cl)cc2)c2ccccc2N1c1ccccc1

>  <TESTED_SYSTEM>
human α1B adrenoceptor (Homo sapiens, UniProt P35368)

>  <pKi>
4.34

$$$$
>  <SMILES_STRUCTURE>
COc1cccc(Nc2cc(N3CCCCC3)nc(N(C)CCc3c[nH]c4ccccc34)n2)c1

>  <TESTED_SYSTEM>
human α1B adrenoceptor (Homo sapiens, UniProt P35368)

>  <pKi>
5.93

$$$$
>  <SMILES_STRUCTURE>
O=C1C(=Nc2ccc(C(F)(F)F)cc2)c2ccccc2N1c1ccccc1

>  <TESTED_SYSTEM>
human α1B adrenoceptor (Homo sapiens, UniProt P35368)

>  <pKi>
4.49

$$$$

Data origin, for the record: patent EP2140864A2
